# systemName: FGFR3 (UniProt P22607)
# Sequence (P22607 whole entry, looked up): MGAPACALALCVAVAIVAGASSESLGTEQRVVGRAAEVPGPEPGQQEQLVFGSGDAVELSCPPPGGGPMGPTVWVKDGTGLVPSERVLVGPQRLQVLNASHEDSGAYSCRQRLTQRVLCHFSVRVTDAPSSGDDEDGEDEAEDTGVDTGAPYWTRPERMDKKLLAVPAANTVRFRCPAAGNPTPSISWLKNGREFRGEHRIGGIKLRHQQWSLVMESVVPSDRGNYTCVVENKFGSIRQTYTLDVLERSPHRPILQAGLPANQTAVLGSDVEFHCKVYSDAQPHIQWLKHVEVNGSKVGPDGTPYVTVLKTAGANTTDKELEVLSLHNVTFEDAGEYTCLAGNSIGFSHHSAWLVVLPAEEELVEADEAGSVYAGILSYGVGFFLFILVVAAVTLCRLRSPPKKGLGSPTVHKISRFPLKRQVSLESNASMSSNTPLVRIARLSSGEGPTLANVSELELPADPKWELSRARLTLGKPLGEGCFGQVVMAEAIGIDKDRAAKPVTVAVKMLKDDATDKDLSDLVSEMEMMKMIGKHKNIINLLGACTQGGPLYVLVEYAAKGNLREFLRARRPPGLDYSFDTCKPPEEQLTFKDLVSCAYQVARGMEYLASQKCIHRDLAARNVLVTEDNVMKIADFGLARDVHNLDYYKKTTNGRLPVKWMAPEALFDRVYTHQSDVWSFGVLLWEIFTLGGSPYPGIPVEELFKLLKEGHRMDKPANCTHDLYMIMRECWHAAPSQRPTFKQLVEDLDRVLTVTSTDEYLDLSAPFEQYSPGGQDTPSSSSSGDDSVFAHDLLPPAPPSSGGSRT
# assayMethodText: phosphorylation enrichment, bacterial display (enrichment ratio); higher = better substrate or ligand; peptides without Tyr show the background;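 also: 11-residue human phosphosite peptides and single-mutation variants displayed on the E. coli surface, counted by deep sequencing, each peptide's frequency after selection divided by its frequency in the unselected input library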;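 also: frequency after pTyr selection over input frequency; kinase dosed for 20-30% of maximal phosphorylation in three min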
measurementKind: phosphorylation enrichment

• KLNNEHLELNY [MME_Y497_Y497H] = 0.517
• MSRDVYSIDFF [NTRK2_Y702_T704I_YF] = 1.2
• EQSNPYMVLDI [ROCK2_Y1197] = 1.1
• HAVYIYDICHV [TWNK_Y508_V507I] = 1.65
• RIAFQYGVTDL [MYBPC3_Y340] = 1.08
• EFLQKYKGFKI [SYNE1_Y6953_YF] = 0.491
• FPPDGYSRHCE [CTNND1_Y213_Y217C_YF] = 0.661
• LDAFIYDAAVL [GRIN2A_Y730] = 0.868
• STILLYHIMAW [GPR143_Y157] = 2.88
• SEDSEYFKAFE [CASQ2_Y178_YF] = 0.882
• QISSNYDDAMQ [ZNF281_Y531] = 0.703
• FHLLPYTIRAM [PARS2_Y93_V95I_YF] = 0.533
• GGDAVYTNGTI [RFX2_Y82_A86T] = 0.613
• TESNNYIFKTL [FAM83B_Y637_YF] = 0.82
• KAIMTYVSSFF [ACTN4_Y260_YF] = 0.647
• PLGPLYASSNT [INSR_Y992_P997T] = 0.73
• KLQQWYREHRS [GPI_Y17] = 0.475
• NHFKIHNLCAE [PTEN_Y68_Y68H_YF] = 0.441
• VSFDEYRFRSV [CFTR_Y515_YF] = 0.699
• VQVAYYTMMMN [SPATA17_Y84] = 6.58
• ENELTYFCCKK [CD59_Y86_YF] = 0.711
• SPFAVYLFFTF [RPGRIP1_Y826_R827L_YF] = 0.63
• PSSNLYYRWLT [CNGA3_Y168] = 9.96
• GLRFGYGGLGG [KRTAP20-2_Y15_V17G_YF] = 0.53
• IDPFTYTPFGS [CYP3A4_Y432_I431T_YF] = 0.523
• RLLVVYRWTQR [HBB_Y36_P37R] = 0.761
• IWDLKYTIENP [SND1_Y178_R174W] = 0.82
• TEAEPYYRSLR [NPHS1_Y1138] = 0.609
• QCTSAHPLQPE [NANS_Y188_Y188H] = 0.961

----------
# System: c-Src
# assayMethodText: phosphorylation enrichment, bacterial display (enrichment ratio); higher = better substrate or ligand; peptides without Tyr show the background
Known phosphorylation enrichment of a selection of sequences
measurementKind: phosphorylation enrichment

- TACNPYKPPGP: 0.46
- FMCKVYSDPQP [FGFR1_Y280]: 0.664
- DGQVNYEGFVQ [CALM1_Y139_E141G]: 0.603
- EEAAGYAQESQ [CAMKV_Y491]: 0.604
- CGADSYEMEED [EGFR_Y316]: 0.483
- GSSSSYGQHGS [HRNR_Y517]: 0.256
- EIVFVYVKKRS [DNAI2_Y7_YF]: 0.386
- GENTMYAQVFN [LY9_Y603]: 2.38
- PLLTDYSPQLQ [OTC_Y345_S340P]: 0.616
- YQLENCCNGGG [INS_Y108_Y108C]: 0.59
- MKSIKYMDKEI [CCDC60_Y41]: 0.447
- RIAFQYGVTDL [MYBPC3_Y340]: 0.879
- NFFDTCIKTCL [IQGAP2_Y1445_Y1445C_YF]: 0.521
- KLVDVYVNDAF [PGK1_Y161_G158V]: 0.435

----------
# systemName: EPHB1 (UniProt P54762)
# Sequence (P54762 whole entry, looked up): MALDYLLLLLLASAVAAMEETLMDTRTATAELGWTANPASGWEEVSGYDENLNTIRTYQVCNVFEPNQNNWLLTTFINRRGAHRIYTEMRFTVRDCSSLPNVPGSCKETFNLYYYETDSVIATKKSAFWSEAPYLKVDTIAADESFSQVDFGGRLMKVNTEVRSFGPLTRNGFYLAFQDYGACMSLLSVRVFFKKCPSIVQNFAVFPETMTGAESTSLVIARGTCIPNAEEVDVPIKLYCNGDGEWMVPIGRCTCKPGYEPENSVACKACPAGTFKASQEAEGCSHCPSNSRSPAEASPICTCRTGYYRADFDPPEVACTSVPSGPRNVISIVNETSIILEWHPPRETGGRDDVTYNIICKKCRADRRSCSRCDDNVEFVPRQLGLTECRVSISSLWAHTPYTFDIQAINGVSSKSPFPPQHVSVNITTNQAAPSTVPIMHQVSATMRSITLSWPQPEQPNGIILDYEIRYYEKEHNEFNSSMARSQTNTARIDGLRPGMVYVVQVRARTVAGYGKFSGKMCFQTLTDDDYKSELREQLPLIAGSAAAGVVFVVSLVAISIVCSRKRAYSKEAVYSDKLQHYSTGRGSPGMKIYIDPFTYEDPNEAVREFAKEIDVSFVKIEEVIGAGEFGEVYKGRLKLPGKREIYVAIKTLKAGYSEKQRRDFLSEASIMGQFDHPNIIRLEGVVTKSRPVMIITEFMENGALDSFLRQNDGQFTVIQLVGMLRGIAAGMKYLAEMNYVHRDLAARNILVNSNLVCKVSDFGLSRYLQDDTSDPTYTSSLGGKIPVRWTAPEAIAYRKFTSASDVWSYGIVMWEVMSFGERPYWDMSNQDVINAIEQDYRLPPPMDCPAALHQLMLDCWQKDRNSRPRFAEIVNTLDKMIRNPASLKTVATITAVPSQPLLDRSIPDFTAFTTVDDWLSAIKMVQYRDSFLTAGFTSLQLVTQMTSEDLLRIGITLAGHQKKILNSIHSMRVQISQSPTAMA
# assayMethodText: phosphorylation enrichment, bacterial display (enrichment ratio); higher = better substrate or ligand; peptides without Tyr show the background
measurementKind: phosphorylation enrichment

- ALTDNYMYLVI [HAGH_Y61]: 9.55
- LPIQTYSALNF [DES_Y423]: 14.3
- RFLERYIYNRQ [HLA-DPB1_Y57_E62Q]: 1.04
- HLQQSYLPRGT [TEX45_Y396]: 0.622
- QMIETYFDFRV [NSMF_Y506_L511V]: 2.29
- DEFLEYRRIVG [FAM221A_Y20_YF]: 0.469
- GGDAVYTNGTI [RFX2_Y82_A86T]: 1.39
- EEEPVYKAEPE [HCLS1_Y360_E361K]: 0.573
- KIKGRYEKCEP [KRT26_Y119_W118R]: 0.614
- CGTPTCLAPEV [CHEK2_Y390_Y390C]: 0.545
- FNSLPYQVPTS [CALCOCO2_Y358]: 0.464
- SRIWVYNHYRW [BRCA2_Y2621]: 0.671
- FENGEYIVRQG [PRKG1_Y247_I249V_YF]: 0.612
- LFEDCYLLGTS [ASS1_Y87_R86C_YF]: 0.572

----------
# systemName: FGFR1 (UniProt P11362)
# Sequence (P11362 whole entry, looked up): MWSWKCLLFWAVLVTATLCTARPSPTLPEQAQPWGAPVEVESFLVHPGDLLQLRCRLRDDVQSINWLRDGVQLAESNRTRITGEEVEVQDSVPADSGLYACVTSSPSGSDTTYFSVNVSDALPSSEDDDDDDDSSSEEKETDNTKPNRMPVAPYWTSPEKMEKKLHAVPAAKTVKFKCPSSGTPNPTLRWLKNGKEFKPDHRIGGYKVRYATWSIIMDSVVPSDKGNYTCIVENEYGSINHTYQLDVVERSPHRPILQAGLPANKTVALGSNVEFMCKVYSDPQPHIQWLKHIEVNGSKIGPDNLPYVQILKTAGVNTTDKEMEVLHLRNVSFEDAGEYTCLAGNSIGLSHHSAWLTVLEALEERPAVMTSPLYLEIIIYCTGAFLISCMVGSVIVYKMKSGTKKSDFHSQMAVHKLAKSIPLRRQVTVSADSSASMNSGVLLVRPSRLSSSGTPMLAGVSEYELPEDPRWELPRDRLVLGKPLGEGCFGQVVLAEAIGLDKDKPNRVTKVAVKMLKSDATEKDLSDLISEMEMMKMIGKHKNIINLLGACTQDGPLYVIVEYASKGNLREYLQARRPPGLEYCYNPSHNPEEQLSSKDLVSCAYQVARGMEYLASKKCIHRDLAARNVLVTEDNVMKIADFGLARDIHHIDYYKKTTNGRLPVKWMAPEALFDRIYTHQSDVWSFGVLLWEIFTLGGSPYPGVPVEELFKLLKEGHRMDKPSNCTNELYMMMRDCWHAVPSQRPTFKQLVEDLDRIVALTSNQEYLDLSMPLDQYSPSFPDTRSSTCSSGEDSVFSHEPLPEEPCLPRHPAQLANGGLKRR
# assayMethodText: phosphorylation enrichment, bacterial display (enrichment ratio); higher = better substrate or ligand; peptides without Tyr show the background
Known phosphorylation enrichment of a selection of sequences
measurementKind: phosphorylation enrichment

• KTTILYKLKLG [ARF1_Y35] = 0.404
• KGIDRYNPENL [EIF3K_Y21] = 0.493
• TTKGAYSLSVR [YES1_Y194_I198V] = 0.405
• IPTPAYQSSPA [PDCD6IP_Y727] = 0.377
• GRSTYYWPRPR [GAGE12J_Y10] = 0.537
• QVKEQYQDVPM [PKP2_Y659_K654Q] = 0.835
• ADEQIYWQIAA [CSKtide_2014] = 7.87
• FRDALYKFMVD [PHEX_Y250_YF] = 0.626
• SGRRRYTIAAL [TTR_Y125_P122R] = 0.547
• HCHEGYILHGA [SVEP1_Y2921] = 0.722
• FEDALYTVLHR [UNC13D_Y61_YF] = 2.49
• MCITRYERESQ [PRNP_Y218_Q217R] = 0.433
• VYSSDYFSFVL [USP24_Y2138] = 9.06
• SFPSTYRFERG [INPPL1_Y661_P659S_YF] = 0.411

----------
Known phosphorylation enrichment of a selection of sequences
# systemName: MERTK (UniProt Q12866)
# Sequence (Q12866 whole entry, looked up): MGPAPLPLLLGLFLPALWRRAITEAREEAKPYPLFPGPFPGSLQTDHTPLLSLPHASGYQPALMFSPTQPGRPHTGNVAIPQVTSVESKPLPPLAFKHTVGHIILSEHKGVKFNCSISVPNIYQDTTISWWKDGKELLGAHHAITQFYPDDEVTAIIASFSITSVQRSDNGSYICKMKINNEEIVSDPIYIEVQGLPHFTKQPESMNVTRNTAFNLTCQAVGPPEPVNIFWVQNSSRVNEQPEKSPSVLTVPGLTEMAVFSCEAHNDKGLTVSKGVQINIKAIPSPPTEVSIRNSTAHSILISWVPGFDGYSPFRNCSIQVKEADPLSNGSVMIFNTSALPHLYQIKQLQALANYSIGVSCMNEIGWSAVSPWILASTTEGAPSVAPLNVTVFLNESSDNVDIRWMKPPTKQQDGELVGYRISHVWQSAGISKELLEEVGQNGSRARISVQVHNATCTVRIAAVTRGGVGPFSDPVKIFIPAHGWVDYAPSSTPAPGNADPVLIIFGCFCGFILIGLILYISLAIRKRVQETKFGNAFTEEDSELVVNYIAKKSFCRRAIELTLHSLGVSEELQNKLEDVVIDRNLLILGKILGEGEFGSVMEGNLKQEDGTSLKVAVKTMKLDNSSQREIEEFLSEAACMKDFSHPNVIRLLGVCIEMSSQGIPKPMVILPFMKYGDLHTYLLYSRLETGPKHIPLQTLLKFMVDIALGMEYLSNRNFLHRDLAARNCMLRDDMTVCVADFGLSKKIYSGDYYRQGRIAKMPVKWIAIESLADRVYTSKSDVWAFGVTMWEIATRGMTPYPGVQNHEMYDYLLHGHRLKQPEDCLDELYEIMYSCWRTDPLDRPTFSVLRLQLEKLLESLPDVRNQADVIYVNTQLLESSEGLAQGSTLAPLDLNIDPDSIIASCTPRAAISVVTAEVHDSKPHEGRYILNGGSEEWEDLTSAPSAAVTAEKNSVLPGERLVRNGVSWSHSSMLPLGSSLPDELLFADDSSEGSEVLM
# assayMethodText: phosphorylation enrichment, bacterial display (enrichment ratio); higher = better substrate or ligand; peptides without Tyr show the background
measurementKind: phosphorylation enrichment

• LKMLVYLDMSK [LRRC7_Y234] = 0.545
• RLPSGYGLAYR [DLK1_Y262] = 0.385
• GVSYIYTIDGS [DCX_Y105_R102S] = 1.28
• NPQKSCFIRLY [WAS_Y83_Y83C] = 0.396
• QKDTFYGLRSL [IGSF10_Y126] = 0.552
• QRIHDYFEHRF [HCN4_Y554_YF] = 0.447
• GAAMLYFPSVS [GPR143_Y177_YF] = 0.732
• VFLGAYDHFLP [SLC22A5_Y486_R488H_YF] = 6.29
• VTGWGYRKLRE [F11_Y521_D526E] = 0.546
• RYLKDYGEFEV [GINS1_Y156_C152Y] = 0.792
• LKTNWYNNGKD [DNMT3B_Y404_C403W] = 0.736
• GNHVSYFQSDG [CACNA1C_Y1757_YF] = 0.443
• EKMWTYMRSAE [GRIA4_Y695] = 0.299
• LNERHYGGLTG [PGAM2_Y92] = 0.527

----------
# System: c-Abl (mouse)
# assayMethodText: phosphorylation enrichment, bacterial display (enrichment ratio); higher = better substrate or ligand; peptides without Tyr show the background
measurementKind: phosphorylation enrichment

• TRVMEYISRLD [CLTCL1_Y1043] = 0.565
• CTTLHYNFMCN [TP53_Y234_I232L_YF] = 0.545
• KAVLHYKHQNQ [MTOR_Y1804_E1799K] = 0.891
• YRDALYKFIVD [PHEX_Y250_M253I] = 0.916
• SVTCTYSPGLN [TP53_Y126_A129G] = 1.05
• SQPASYQRRLL [PPIG_Y320] = 0.301
• AELVPYFMEHH [PTPN11_Y80_Q79P_YF] = 0.741
• FDKPVYQKTTE [LDLR_Y828_N825K] = 0.606
• MQMEEYRGWVE [BTNL2_Y91] = 0.545
• PRQRRYVYYYS [PTEN_Y174_S170R] = 0.769
• STFVPCEIKVQ [L1CAM_Y784_Y784C] = 1.04
• TVQVAYFTVMM [SPATA17_Y83_M86V_YF] = 0.921
• NTCNRYCCDEI [ITGB3_Y660_R662C] = 1.03

These entries and their values trace back to the supplement of paper PMC10065799.
